These data points were gathered from patent US20240409663A1.

SYSTEM NAME: T1, human GPC3-his tag protein (human, UniProt P51654 25-559, limits assumed)
T1 construct: recombinant soluble antigen used as analyte in all Biacore runs; also called recombinant GPC3 protein; rhGPC3-His; not shown: His tag
METHOD: SPR Biacore 8K, mAb captured, affinity ranking
Response field label: string, one of 1 (yes) (koff strictly below 0.0006 s⁻¹) or 0 (no).

In: Say whether its koff is strictly beneath 0.0006 s⁻¹. Entry: 52H5D3B8-6#-VH2+VL1 (antibody, V domains shown, humanized) VH: QVQLVQSGAEVKKPGASVKVSCKASGYTFTDYEMHWVRQAPGQGLEWIGAIHPGSGGTAYNQKFKGRVTMTADTSTSTVYMELSSLRSEDTAVYYCTRYYSYAYWGQGTLVTVSS VL: DIVMTQTPLSLSVTPGQPASISCRSSQSLVHSNGNTYLQWYLQKPGQSPQLLIYKVSNRFSGVPDRFSGSGSGTDFTLKISRVEAEDVGVYYCFQSIHVPYTFGGGTKLEIK
Out: 0 (no)

In: Say whether its koff is strictly beneath 0.0006 s⁻¹. Entry: 52H5D3B8-6#-VH3+VL1 (antibody, V domains shown, humanized) VH: QVQLVQSGAEVKKPGASVKVSCKALGYTFTDYEMHWVKQAPGQGLEWIGAIHPGSGGTAYNQKFKGRVTLTADTSTSTVYMELSSLRSEDTAVYYCTRYYSYAYWGQGTLVTVSS VL: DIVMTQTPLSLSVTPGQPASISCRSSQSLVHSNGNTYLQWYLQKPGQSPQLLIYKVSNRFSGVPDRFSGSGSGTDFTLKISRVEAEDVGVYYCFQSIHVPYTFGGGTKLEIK
Out: 1 (yes)

In: Say whether its koff is strictly beneath 0.0006 s⁻¹. Entry: 52H5D3B8-6#-VH2+VL4 (antibody, V domains shown, humanized) VH: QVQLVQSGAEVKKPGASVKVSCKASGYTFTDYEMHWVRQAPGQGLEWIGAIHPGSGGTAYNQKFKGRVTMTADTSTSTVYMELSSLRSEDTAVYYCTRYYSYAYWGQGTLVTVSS VL: DIVMTQTPLSLSVTPGQPASISCRSSQSLVHSNGNTYLQWYLQKPGQSPKLLIYKVSNRFSGVPDRFSGSGSGTDFTLKISRVEAEDVGVYFCFQSIHVPYTFGGGTKLEIK
Out: 0 (no)

In: Say whether its koff is strictly beneath 0.0006 s⁻¹. Entry: 52H5D3B8-6#-VH4+VL1 (antibody, V domains shown, humanized) VH: QVQLVQSGAEVKKPGASVKVSCKALGYTFTDYEMHWVKQAPGQGLEWIGAIHPGSGGTAYNQKFKGRATMTADKFTSTVYMELSSLRSEDTAVYYCTRYYSYAYWGQGTLVTVSS VL: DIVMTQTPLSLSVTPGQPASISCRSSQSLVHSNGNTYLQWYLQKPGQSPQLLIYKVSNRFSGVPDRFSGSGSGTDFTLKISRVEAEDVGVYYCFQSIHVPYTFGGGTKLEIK
Out: 0 (no)

In: Say whether its koff is strictly beneath 0.0006 s⁻¹. Entry: 52H5D3B8-6#-VH1+VL3 (antibody, V domains shown, humanized) VH: QVQLVQSGAEVKKPGASVKVSCKASGYTFTDYEMHWVRQAPGQGLEWMGAIHPGSGGTAYNQKFKGRVTMTRDTSTSTVYMELSSLRSEDTAVYYCARYYSYAYWGQGTLVTVSS VL: DIVMTQTPLSLSVTPGQPASISCRSSQSLVHSNGNTYLQWYLQKPGQSPKLLIYKVSNRFSGVPDRFSGSGSGTDFTLKISRVEAEDVGVYYCFQSIHVPYTFGGGTKLEIK
Out: 0 (no)

In: Say whether its koff is strictly beneath 0.0006 s⁻¹. Entry: 52H5D3B8-6#-VH1+VL2 (antibody, V domains shown, humanized) VH: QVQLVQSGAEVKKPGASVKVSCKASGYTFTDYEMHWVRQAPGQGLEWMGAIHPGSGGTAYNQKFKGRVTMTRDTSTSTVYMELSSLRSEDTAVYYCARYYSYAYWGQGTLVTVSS VL: DIVMTQTPLSLSVTPGQPASISCRSSQSLVHSNGNTYLQWYLQKPGQSPQLLIYKVSNRFSGVPDRFSGSGSGTDFTLKISRVEAEDVGVYFCFQSIHVPYTFGGGTKLEIK
Out: 0 (no)

In: Say whether its koff is strictly beneath 0.0006 s⁻¹. Entry: 52H5D3B8-6#-VH1+VL4 (antibody, V domains shown, humanized) VH: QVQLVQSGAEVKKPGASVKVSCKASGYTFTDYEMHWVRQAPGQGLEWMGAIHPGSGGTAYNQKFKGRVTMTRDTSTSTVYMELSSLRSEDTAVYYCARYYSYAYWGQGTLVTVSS VL: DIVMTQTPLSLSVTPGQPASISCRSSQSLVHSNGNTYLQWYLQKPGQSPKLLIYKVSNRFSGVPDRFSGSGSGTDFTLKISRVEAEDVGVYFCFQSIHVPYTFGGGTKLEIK
Out: 0 (no)

In: Say whether its koff is strictly beneath 0.0006 s⁻¹. Entry: 52H5D3B8-6#-VH3+VL3 (antibody, V domains shown, humanized) VH: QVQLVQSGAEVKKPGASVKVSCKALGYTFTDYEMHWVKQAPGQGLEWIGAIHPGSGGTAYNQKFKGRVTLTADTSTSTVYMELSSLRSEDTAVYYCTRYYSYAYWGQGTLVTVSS VL: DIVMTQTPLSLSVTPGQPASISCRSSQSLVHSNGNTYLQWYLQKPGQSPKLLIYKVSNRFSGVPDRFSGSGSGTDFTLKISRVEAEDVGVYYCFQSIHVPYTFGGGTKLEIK
Out: 1 (yes)

In: Say whether its koff is strictly beneath 0.0006 s⁻¹. Entry: 52H5D3B8-6#-VH1+VL1 (antibody, V domains shown, humanized) VH: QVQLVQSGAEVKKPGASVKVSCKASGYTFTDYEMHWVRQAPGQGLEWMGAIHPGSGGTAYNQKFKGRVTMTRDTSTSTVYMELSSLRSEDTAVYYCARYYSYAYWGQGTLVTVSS VL: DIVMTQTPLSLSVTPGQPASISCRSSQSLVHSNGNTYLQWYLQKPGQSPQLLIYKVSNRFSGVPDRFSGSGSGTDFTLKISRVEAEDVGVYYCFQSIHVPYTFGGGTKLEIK
Out: 0 (no)
